target: CDK2/CyclinA (Homo sapiens); assay: LanthaScreen Eu Kinase Binding Assay, CDK2; conditions: tracer 236, read-out: Affinity (Kd) CDK2
Mark each entry rule met if its Kd sits below 900 nM, and rule not met for all others.

Find out if reported Kd for "COc1ccccc1-c1ncnc(Nc2cccc([N+](=O)[O-])c2)n1" is less than 900 nM rule met

====

Listing of recorded pIC50 by entry.
test system: LPS-induced TNF alpha release in PBMCs; assay: TNF alpha release assay; format: cell-based; details: Homo sapiens, PBMC, 6 h, 1 μg/mL LPS
Counter-ions that a name gives are not always drawn.
Entry type: numeric. Quantity: pIC50, the -log10 of concentration in molar units.

> print(dat)
                                   compound  observation.type  number
1  COc1ccc(F)cc1-c1ncnc(Nc2cccc(CS(N)(=O)=O)c2)n1 [Compound B3]             pIC50    5.49
2  COc1ccccc1-c1ncnc(Nc2cccc(NC(=O)Nc3ccccc3)c2)n1 [Compound N1]             pIC50    5.17
3  COc1ccccc1-c1ncnc(Nc2ccccc2)n1 [Compound P1]             pIC50    4.86

Look up and report measured pIC50 (LPS-induced TNF alpha release in PBMCs) for the following compound: COc1cnccc1-c1ncnc(Nc2cccc(CS(N)(=O)=O)c2)n1 [Compound B19] 4.98

Consider the compound COc1ccccc1-c1ncnc(Nc2cccc(CS(N)(=O)=O)c2)n1 [B1′, trifluoroacetic acid salt] tested on LPS-induced TNF alpha release in PBMCs; state its pIC50. 5.57

====

Counter-ions that a name gives are not always drawn.
Dear all, this message contains IC50 results, target or system CDK9 (Homo sapiens).
// note: answer is a bare numeric in nM

The cases that follow already have their IC50 on record.
> print(dat)
                                   compound          system.name   u  number
1  NS(=O)(=O)Cc1cccc(Nc2ncnc(-c3ccccc3Oc3ccccc3)n2)c1 [Compound B14]  CDK9 (Homo sapiens)  nM       9
2  CCOc1ccccc1-c1ncnc(Nc2cccc(CS(N)(=O)=O)c2)n1 [Compound B12]  CDK9 (Homo sapiens)  nM     102

Output measured IC50 for this item: COc1cc(F)ccc1-c1ncnc(Nc2cccc(CS(N)(=O)=O)c2)n1 [B2′, hydrochloride] 10.4

Fill in IC50 for record COc1cccc(F)c1-c1ncnc(Nc2cccc(CS(N)(=O)=O)c2)n1 [Compound B4] 201

Consider the compound COc1ccccc1-c1ncnc(Nc2cccc(CS(N)(=O)=O)c2)n1 [B1′, trifluoroacetic acid salt] . State its measured IC50. 96.5

Provide one value: measured IC50 of COc1ccccc1-c1ncnc(Nc2cccc(C(N)=O)c2)n1 [Compound E1] 837

Read the entry COc1ccccc1-c1ncnc(Nc2cccc(S(C)(=O)=O)c2)n1 [Compound S1] and write its reported IC50. 24.7

====

biological target: CDK4/CyclinD1 (Homo sapiens, UniProt P11802); experiment: Lance Ultra KinaSelect Assay, CDK4; settings: ATP 90 μM, read-out: Inhibition (IC50) CDK4
Sequence (P11802 whole entry): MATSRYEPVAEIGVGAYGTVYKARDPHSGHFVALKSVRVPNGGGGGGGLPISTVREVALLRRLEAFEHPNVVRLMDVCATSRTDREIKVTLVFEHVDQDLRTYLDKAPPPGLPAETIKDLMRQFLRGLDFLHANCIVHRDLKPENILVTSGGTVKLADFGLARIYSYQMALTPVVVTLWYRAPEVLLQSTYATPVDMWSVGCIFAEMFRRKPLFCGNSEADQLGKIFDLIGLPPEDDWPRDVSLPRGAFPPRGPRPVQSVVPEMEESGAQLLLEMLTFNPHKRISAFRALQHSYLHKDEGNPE
Sequence (P24385 whole entry partner): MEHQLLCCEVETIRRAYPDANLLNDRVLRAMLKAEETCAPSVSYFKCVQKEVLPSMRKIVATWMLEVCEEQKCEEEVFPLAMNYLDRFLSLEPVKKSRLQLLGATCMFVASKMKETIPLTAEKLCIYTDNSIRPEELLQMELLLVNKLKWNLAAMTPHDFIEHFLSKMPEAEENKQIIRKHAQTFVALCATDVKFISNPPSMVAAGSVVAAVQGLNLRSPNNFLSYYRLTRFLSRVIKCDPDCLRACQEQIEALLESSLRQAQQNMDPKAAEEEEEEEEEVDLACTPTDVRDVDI
Structures can show the parent of a compound that is named as a salt.
OBSERVATION TYPE: IC50

> print(dat)
                                   molecule                               system.name  observation.type   result
1  COc1ccccc1-c1ncnc(Nc2cccc(CS(N)(=O)=O)c2)n1 [B1′, trifluoroacetic acid salt]  CDK4/CyclinD1 (Homo sapiens, UniProt P11802)              IC50  > 10 µM
2  CCOc1ccccc1-c1ncnc(Nc2cccc(CS(N)(=O)=O)c2)n1  CDK4/CyclinD1 (Homo sapiens, UniProt P11802)              IC50  > 10 µM

Attention now turns to another entry.
Specify the recorded IC50 for "NS(=O)(=O)Cc1cccc(Nc2ncnc(-c3ccccc3OCc3ccncc3)n2)c1" , system: CDK4/CyclinD1 (Homo sapiens, UniProt P11802). > 10 µM

====

biological target: CDK9/Cyclin T1 (Homo sapiens); assay: LanthaScreen Eu Kinase Binding Assay, CDK9/Cyclin T1; settings: tracer 236, read-out: Affinity (Kd) CDK9/Cyclin T1
Could you please mark Satisfied for values of Kd below 30 nM and Not satisfied for values at or above it?

> print(dat)
                                   compound  assigned.category
1  COc1cc(F)ccc1-c1ncnc(Nc2cccc(CS(N)(=O)=O)c2)n1 [Compound B2]          Satisfied
2  COc1cc(F)ccc1-c1ncnc(Nc2cccc(CS(=O)(=O)NCCCCNC(=O)OC(C)(C)C)c2)n1          Satisfied
3  COc1ccc(CO)cc1-c1ncnc(Nc2cccc(CS(N)(=O)=O)c2)n1      Not satisfied
4  COc1cc(F)ccc1-c1ncnc(Nc2cccc(CS(=O)(=O)NCCCCN)c2)n1          Satisfied
5  COc1ccccc1-c1ncnc(Nc2cccc(S(C)(=O)=O)c2)n1          Satisfied

Below: the item to evaluate.
Record COc1ccccc1-c1ncnc(Nc2cccc(CCS(N)(=O)=O)c2)n1 [Compound D1] : is its Kd strictly below 30 nM? Not satisfied

====

Measured pIC50, listed per entry for reference.
system: LPS-induced TNF alpha release in PBMCs; test: TNF alpha release assay; format: cell-based; conditions: Homo sapiens, PBMC, 6 h, 1 μg/mL LPS
Where a name gives a salt, the structure may show the parent alone.
Please keep in mind that pIC50 is minus log10 of the molar concentration; only the number is needed.

Fill in pIC50 for record "COc1cc(F)ccc1-c1ncnc(Nc2cccc(CS(N)(=O)=O)c2)n1" 5.99

For the compound COc1ccccc1-c1ncnc(Nc2cccc(CCS(N)(=O)=O)c2)n1 [Compound D1] , report pIC50. 5.27

Please indicate pIC50 recorded for NS(=O)(=O)Cc1cccc(Nc2ncnc(-c3ccccc3OCc3ccccc3)n2)c1 [B13′, trifluoroacetic acid salt] 6.92

====

molecular target: CDK9/CycT1 (Homo sapiens); construct: Recombinant full-length His-tagged human CDK9 and CycT1; His; purchased Invitrogen PV4131; host or cells: insect cells; assay: CDK9/CycT1 kinase assay (TR-FRET); assay type: biochemical; conditions: ATP 10 μM, values in nM
Sequence (P50750 whole entry): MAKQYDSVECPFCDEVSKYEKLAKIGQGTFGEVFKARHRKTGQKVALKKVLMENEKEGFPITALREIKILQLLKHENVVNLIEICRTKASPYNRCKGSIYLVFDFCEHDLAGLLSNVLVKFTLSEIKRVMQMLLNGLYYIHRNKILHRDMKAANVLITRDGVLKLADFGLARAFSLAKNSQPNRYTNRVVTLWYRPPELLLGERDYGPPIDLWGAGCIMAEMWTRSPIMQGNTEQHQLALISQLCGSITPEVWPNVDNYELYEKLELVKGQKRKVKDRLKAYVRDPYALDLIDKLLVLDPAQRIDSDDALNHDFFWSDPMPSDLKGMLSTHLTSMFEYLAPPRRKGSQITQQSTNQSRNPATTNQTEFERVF
Sequence (O60563 whole entry partner): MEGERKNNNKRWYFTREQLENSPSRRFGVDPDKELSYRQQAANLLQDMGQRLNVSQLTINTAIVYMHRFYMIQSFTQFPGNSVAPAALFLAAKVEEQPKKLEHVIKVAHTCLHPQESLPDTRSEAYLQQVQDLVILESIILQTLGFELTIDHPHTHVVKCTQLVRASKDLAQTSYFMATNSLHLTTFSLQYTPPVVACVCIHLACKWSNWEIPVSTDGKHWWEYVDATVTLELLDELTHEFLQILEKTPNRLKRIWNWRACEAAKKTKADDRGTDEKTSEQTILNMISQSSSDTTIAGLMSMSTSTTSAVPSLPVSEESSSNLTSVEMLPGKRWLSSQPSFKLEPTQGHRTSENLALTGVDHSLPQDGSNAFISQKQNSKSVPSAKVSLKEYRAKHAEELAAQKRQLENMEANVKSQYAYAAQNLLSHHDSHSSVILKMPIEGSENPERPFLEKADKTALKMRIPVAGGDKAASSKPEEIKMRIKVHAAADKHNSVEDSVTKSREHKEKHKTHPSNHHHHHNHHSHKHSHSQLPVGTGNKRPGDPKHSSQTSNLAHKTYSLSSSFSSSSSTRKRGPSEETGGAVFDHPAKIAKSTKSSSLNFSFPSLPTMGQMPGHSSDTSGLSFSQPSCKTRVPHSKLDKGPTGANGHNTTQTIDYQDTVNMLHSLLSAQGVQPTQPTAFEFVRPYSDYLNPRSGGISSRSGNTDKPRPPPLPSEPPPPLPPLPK
Structures can show the parent of a compound that is named as a salt.
Entries whose IC50 is below 30 nM take yes; entries at or above 30 nM take no.

Use these answered entries as a reference point.
> print(dat)
                                   compound  assigned.category
1  COc1cc(F)ccc1-c1ncnc(Nc2cccc(CS(N)(=O)=O)c2)n1 [B2′, hydrochloride]                yes
2  COc1cc(F)ccc1-c1ncnc(Nc2ccc(S(C)(=O)=O)nc2)n1 [Compound U8]                 no
3  CNS(=O)(=O)Cc1cccc(Nc2cc(-c3ccccc3OC)ncn2)c1 [Ref2, reference compound]                 no

# strict comparison: is reported IC50 < 30 nM? input = COc1cc(F)c(F)cc1-c1ncnc(Nc2cccc(CS(N)(=O)=O)c2)n1 [Compound U7] yes

# check: IC50 < 30 nM for COc1ccccc1-c1ncnc(Nc2cccc(S(N)(=O)=O)c2)n1 [Compound C1] yes

Check if IC50 falls below 30 nM for NS(=O)(=O)Cc1cccc(Nc2ncnc(-c3ccc(F)cc3OCC3CC3)n2)c1 [Compound U5] . no

For COc1ccccc1-c1ncnc(Nc2cccc(CS(N)(=O)=O)c2)n1 [Compound B1] , is the recorded IC50 below the cut-off of 30 nM? yes

Please state whether IC50 is below 30 nM for COc1ccccc1-c1cc(Nc2cccc(CS(=O)(=O)N(C)C)c2)ncn1 [Ref4, reference compound] no

====

pIC50 overview
biological target: CDK1/CyclinB1 (Homo sapiens); experiment: Lance Ultra KinaSelect Assay, CDK1; details: ATP 20 μM, read-out: Inhibition (IC50) CDK1
Sequence (P06493 whole entry): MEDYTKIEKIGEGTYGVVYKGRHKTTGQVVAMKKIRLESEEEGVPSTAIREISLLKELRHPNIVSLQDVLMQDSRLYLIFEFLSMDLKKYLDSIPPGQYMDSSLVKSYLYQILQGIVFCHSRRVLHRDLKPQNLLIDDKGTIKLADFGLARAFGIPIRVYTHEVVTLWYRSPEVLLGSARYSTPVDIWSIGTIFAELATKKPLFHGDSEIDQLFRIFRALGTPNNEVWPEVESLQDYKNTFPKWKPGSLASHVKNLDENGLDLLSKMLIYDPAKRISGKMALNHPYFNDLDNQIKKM
Sequence (P14635 whole entry partner): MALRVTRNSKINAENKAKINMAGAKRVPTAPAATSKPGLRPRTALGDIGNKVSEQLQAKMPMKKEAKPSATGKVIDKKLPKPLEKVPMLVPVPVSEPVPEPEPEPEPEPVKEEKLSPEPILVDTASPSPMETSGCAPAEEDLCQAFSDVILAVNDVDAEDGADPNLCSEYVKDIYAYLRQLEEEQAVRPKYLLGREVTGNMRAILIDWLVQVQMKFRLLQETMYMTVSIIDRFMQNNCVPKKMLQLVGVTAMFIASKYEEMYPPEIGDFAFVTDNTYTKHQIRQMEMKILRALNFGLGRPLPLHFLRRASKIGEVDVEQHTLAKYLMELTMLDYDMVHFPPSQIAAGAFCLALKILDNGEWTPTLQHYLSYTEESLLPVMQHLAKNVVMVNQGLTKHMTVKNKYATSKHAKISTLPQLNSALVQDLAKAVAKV
pIC50: −log10 of the molar value.

# annotated cases, reported pIC50 shown
> print(dat)
                      smiles.representation  observation.type  result
1  COc1cc(Cl)ccc1-c1ncnc(Nc2cccc(CS(N)(=O)=O)c2)n1             pIC50  < 5.00
2  COc1ccccc1-c1ncnc(Nc2cccc(NS(C)(=O)=O)c2)n1             pIC50  < 5.00

Quote CDK1/CyclinB1 (Homo sapiens) pIC50 for entry "CCCS(=O)(=O)Nc1cccc(Nc2ncnc(-c3ccccc3OC)n2)c1" . < 5.00

====

Here, each record is paired with measured Kd data.
molecular target: CDK2/CyclinA (Homo sapiens); assay: LanthaScreen Eu Kinase Binding Assay, CDK2; settings: tracer 236, read-out: Affinity (Kd) CDK2
Where a name gives a salt, the structure may show the parent alone.
Write the number in nM without appending the unit.

Would you please look over these solved cases?
> print(dat)
                                   compound                  system.name  number
1  NS(=O)(=O)Cc1cccc(Nc2ncnc(-c3ccccc3OCc3ccncc3)n2)c1  CDK2/CyclinA (Homo sapiens)    1690
2  COc1ccccc1-c1ncnc(Nc2cccc(S(N)(=O)=O)c2)n1 [C1′, trifluoroacetic acid salt]  CDK2/CyclinA (Homo sapiens)     220

Report value: Kd, system: CDK2/CyclinA (Homo sapiens), compound: "COc1ccccc1-c1ncnc(Nc2cccc(NC(C)=O)c2)n1" 1450

Under CDK2/CyclinA (Homo sapiens), report Kd for COc1ccccc1-c1ncnc(Nc2cccc(CS(N)(=O)=O)c2)n1 [B1′, trifluoroacetic acid salt] 798

State Kd (CDK2/CyclinA (Homo sapiens)) of "CC(C)(C)OC(=O)NCCCCOc1ccccc1-c1ncnc(Nc2cccc(CS(N)(=O)=O)c2)n1" . 2850

Please indicate recorded Kd of NS(=O)(=O)Cc1cccc(Nc2ncnc(-c3ccccc3OCc3ccccc3)n2)c1 [B13′, trifluoroacetic acid salt] measured with CDK2/CyclinA (Homo sapiens). 88

Enter measured Kd, system CDK2/CyclinA (Homo sapiens), for the compound shown: "COc1cccc(F)c1-c1ncnc(Nc2cccc(CS(N)(=O)=O)c2)n1" 704

Recall the reported Kd of "COc1ccc(F)cc1-c1ncnc(Nc2cccc(CS(N)(=O)=O)c2)n1" on CDK2/CyclinA (Homo sapiens) and write it down. 375

State the measured Kd (CDK2/CyclinA (Homo sapiens)) of "NS(=O)(=O)Cc1cccc(Nc2ncnc(-c3cccc4c3OCO4)n2)c1" 6460

For CDK2/CyclinA (Homo sapiens), give the measured Kd of the entry "COc1ccccc1-c1ncnc(Nc2cccc(S(C)(=O)=O)c2)n1" 851
